Values from the supplement of paper PMC6379048

Target Or Test System: PARP12 (UniProt Q9H0J9)
Sequence: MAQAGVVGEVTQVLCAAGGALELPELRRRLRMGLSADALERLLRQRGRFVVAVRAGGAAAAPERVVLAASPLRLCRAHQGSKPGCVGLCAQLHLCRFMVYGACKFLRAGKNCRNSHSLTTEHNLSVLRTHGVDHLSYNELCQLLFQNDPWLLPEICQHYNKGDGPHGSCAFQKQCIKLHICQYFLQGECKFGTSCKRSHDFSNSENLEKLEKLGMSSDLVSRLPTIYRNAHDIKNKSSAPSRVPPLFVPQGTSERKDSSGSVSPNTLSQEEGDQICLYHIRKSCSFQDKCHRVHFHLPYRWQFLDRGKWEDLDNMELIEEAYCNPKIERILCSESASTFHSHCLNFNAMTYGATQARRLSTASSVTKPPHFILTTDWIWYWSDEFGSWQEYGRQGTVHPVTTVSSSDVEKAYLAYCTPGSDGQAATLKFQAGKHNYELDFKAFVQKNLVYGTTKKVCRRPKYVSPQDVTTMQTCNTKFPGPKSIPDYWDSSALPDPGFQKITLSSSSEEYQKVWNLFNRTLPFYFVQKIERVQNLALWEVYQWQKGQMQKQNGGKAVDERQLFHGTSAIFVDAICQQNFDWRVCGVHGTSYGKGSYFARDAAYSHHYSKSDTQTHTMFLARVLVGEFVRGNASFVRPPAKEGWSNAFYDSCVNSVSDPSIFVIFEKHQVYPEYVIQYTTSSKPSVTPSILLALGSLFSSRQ
Assay Procedure: EC50 of free RNA motif oligo competing protein binding to immobilised probe
Result Type: EC50 (µM)
State just the number; it will be interpreted in µM.

Incoming: Recorded EC50 for AAUAAA , please?
Outgoing: 11.2

###

Target Or Test System: RTCA (UniProt O00442)
Sequence: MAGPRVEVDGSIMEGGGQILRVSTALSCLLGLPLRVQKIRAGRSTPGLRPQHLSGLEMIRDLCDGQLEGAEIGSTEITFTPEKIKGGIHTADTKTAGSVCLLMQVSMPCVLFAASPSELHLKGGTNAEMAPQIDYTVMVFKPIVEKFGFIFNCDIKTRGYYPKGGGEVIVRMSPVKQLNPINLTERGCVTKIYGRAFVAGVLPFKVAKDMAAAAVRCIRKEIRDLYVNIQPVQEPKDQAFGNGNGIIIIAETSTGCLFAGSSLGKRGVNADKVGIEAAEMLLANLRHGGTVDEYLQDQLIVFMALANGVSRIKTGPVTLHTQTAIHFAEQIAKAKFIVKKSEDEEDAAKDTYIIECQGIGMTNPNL
Assay Procedure: EC50 of free RNA motif oligo competing protein binding to immobilised probe
Attribute: pEC50
Schema: pEC50 number; meaning minus log10 of the concentration expressed in molar units.

UAUUUAU 6.42
CUGUCCU 5.71

Incoming: I'd like to know its pEC50. The sequence in question is AAUAAA
Outgoing: 6.25

###

Target Or Test System: MRPS27 (UniProt Q92552)
Assay Procedure: EC50 of free RNA motif oligo competing protein binding to immobilised probe
Result Type: EC50 (nM)
Enter your answer as a number in nM; do not include the unit.

Incoming: Request: EC50, test system MRPS27 (UniProt Q92552), entry UAUUUAU
Outgoing: 82.5

###

Target Or Test System: HNRNPM (UniProt P52272)
Sequence: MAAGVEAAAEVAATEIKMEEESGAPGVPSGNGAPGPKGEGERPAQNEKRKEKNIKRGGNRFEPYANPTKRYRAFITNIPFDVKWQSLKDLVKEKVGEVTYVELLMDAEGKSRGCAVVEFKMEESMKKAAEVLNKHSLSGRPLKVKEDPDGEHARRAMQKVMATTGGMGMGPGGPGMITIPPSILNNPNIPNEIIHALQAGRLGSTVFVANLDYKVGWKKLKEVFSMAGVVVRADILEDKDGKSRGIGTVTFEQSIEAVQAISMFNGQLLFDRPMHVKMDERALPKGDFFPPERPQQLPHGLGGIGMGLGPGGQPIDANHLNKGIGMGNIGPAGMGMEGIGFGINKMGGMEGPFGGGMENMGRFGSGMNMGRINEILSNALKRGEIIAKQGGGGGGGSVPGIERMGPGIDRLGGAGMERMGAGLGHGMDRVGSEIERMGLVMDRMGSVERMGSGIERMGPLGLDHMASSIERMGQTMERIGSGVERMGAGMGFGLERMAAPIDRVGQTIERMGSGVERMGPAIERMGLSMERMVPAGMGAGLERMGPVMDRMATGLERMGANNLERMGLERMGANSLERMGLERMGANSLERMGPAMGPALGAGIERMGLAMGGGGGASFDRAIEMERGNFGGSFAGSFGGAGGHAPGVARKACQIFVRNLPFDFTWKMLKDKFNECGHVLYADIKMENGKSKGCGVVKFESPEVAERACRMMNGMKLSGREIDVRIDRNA
Assay Procedure: Kd (EC50 corrected by depletion factor)
Result Type: pKd
Note on units: pKd is unitless, being -log10 of a concentration expressed in mol/L.

Incoming: Recorded pKd of UAUUUAU , please.
Outgoing: 5.36

###

Target Or Test System: ZFP36L1 (UniProt Q07352)
Sequence: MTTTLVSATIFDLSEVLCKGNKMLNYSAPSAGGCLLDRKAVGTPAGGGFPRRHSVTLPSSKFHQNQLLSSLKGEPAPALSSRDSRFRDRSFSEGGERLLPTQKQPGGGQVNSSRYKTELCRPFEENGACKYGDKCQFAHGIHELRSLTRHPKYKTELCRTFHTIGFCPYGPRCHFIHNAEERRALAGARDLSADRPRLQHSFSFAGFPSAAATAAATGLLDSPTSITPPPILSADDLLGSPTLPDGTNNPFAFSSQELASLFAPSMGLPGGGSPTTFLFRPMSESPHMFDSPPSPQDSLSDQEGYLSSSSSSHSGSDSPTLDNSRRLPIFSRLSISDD
Assay Procedure: Kd (EC50 corrected by depletion factor)
Result Type: pKd
On this scale, pKd is minus log10 of a concentration expressed in M (mol/L).

Incoming: GET /values?readout=pKd&item= UAUUUAU
Outgoing: 7.61

###

Target Or Test System: ERAL1 (UniProt O75616)
Sequence: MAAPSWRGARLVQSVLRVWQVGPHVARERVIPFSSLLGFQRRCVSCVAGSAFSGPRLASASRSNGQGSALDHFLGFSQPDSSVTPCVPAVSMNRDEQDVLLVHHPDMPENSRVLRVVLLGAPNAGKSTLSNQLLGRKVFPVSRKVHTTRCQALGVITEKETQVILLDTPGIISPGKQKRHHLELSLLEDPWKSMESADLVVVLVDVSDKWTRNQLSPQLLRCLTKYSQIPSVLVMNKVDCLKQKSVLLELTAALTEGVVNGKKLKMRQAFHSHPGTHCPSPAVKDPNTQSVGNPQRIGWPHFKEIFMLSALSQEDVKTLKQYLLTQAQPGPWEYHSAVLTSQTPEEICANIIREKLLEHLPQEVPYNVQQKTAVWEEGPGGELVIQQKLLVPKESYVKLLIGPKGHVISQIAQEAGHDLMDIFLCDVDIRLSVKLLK
Assay Procedure: EC50 of free RNA motif oligo competing protein binding to immobilised probe
Result Type: EC50 (nM)
Give the quantity in nM, number only.

Incoming: I would be grateful if you could share the reported EC50 for UAUUUAU .
Outgoing: 27.8

###

Target Or Test System: MEX3B (UniProt Q6ZN04)
Sequence: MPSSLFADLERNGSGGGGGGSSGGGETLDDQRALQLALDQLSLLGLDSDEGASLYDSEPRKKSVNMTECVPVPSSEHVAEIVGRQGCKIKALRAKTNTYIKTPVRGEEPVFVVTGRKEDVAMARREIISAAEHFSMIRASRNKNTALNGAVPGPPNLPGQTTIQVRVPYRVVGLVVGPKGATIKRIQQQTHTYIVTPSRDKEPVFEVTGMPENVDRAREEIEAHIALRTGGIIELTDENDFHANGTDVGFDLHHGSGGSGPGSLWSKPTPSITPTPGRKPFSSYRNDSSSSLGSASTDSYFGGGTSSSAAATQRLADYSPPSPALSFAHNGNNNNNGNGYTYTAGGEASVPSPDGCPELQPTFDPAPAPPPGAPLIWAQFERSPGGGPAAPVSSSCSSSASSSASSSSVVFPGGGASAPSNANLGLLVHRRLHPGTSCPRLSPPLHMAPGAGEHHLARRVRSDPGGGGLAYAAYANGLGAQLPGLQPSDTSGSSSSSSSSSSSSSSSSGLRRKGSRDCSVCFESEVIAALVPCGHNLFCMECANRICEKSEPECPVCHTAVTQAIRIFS
Assay Procedure: Kd (EC50 corrected by depletion factor)
Result Type: pKd
pKd is defined as minus the log10 of a concentration measured in mol/L.

UAUUUAU 6.66

Please turn your attention to the following entry.
Incoming: Please report the recorded pKd for AAUAAA .
Outgoing: 6.48

###

Target Or Test System: ZCCHC24 (UniProt Q8N2G6)
Sequence (Q8N2G6 whole entry): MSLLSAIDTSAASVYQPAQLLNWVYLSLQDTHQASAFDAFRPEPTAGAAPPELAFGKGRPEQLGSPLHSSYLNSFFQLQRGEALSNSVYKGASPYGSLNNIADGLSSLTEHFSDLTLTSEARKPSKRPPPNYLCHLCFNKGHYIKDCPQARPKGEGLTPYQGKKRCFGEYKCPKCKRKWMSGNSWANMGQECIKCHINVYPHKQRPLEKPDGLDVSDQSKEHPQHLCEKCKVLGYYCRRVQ
Assay Procedure: Kd (EC50 corrected by depletion factor)
Attribute: Kd
Numbers only; they are read as nM.

AAUAAA 207

Let's switch to this sequence now.
Incoming: Tell me reported Kd for UAUUUAU , tested with ZCCHC24 (UniProt Q8N2G6).
Outgoing: 1910
